subject-of-test: KRAS G12C (GMPPNP-loaded) and PI3Ka (Ras-binding domain) interaction (Homo sapiens (Human), UniProt P01116, C118S/C51S/C80L/G12C)
Sequence (P01116 other isoform, or with tags, fused parts or gaps G12C/C51S/C80L/C118S): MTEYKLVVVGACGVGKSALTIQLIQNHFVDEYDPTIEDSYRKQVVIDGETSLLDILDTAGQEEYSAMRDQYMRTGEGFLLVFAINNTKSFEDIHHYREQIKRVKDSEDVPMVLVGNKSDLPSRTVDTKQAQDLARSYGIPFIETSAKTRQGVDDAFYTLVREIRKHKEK
experiment: Inhibition of KRAS G12C and PI3Ka binding (AlphaScreen)
experimental-conditions: KRAS G12C loaded with GMPPNP, PI3Ka RBD, 2 hours preincubation; read-out: PI3K RBD K-Ras IC50
pIC50: −log10 of the molar value.
quantity-kind: pIC50

>>> result("CC(C)c1noc(/C=C/C(=O)N2CCN(c3nc(OCC45CCCN4CCC5)nc4c3CCN(c3cccc5ccc(F)c(Cl)c35)C4)C[C@@H]2CC#N)n1")
"7.00 to 8.00"
>>> result("CCO[C@@H]1CCN(C/C=C/C(=O)N2CCN(c3nc(OC[C@@]45CCCN4C[C@H](F)C5)nc4c(F)c(-c5cccc6cccc(Cl)c56)ncc34)C[C@@H]2CC#N)C1")
"> 8.00"
>>> result("CCO[C@H]1CCN(C/C=C/C(=O)N2CCN(c3nc(OC[C@@]45CCCN4C[C@H](F)C5)nc4c(F)c(-c5cccc6cccc(Cl)c56)ncc34)C[C@@H]2CC#N)C1")
"> 8.00"

Query: Could you tell me which pIC50 is on file for CC(C)c1noc(/C=C/C(=O)N2CCN(c3nc(OCC45CCCN4CCC5)nc4c3CNC(c3cccc5cccc(Cl)c35)C4F)C[C@@H]2CC#N)n1 (some centres unmarked) ?
Result: 7.00 to 8.00

Query: Could you tell me which pIC50 is on file for N#CC[C@H]1CN(c2nc(OC[C@@]34CCCN3C[C@H](F)C4)nc3c(F)c(-c4cccc5cccc(Cl)c45)ncc23)CCN1C(=O)/C=C/CN1CC2CC(C1)O2 ?
Result: > 8.00
